Recorded values, source paper PMC7083148.

- STUDY SYSTEM: OfurOR27 (Ostrinia furnacalis, UniProt A0A0E4B5I0)
- Construct: full-length ORF (402 amino acids); with OfurOrco (OfurOR2)
- Sequence (A0A0E4B5I0 1-401): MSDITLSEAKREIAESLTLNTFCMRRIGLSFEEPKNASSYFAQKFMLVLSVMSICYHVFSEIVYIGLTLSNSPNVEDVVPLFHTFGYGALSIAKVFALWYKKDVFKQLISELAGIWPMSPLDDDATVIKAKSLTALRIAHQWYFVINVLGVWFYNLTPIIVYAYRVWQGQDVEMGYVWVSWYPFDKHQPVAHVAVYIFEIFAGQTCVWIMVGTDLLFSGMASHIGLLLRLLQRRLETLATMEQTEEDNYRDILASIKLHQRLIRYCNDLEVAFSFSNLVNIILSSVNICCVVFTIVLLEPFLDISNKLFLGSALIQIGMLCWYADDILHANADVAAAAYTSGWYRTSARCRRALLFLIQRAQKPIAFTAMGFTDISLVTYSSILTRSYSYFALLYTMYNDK
- Sequence (A0A0E4B591 1-474 partner): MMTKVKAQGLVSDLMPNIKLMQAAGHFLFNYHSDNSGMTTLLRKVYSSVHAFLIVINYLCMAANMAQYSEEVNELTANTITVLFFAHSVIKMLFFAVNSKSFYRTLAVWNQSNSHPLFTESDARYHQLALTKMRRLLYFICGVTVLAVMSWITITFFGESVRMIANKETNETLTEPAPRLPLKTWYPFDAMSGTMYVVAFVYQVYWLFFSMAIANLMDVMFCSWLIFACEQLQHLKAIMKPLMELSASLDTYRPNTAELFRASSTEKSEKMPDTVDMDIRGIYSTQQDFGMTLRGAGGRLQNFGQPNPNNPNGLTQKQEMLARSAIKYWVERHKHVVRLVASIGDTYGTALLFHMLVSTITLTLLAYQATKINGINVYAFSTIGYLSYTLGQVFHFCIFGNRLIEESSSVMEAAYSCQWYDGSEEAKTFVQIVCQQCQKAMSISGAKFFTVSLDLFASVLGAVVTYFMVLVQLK
- ASSAY METHOD TEXT: two-electrode voltage clamp in Xenopus oocytes co-expressing OfurOR27/OfurOrco, dose-response
Known pEC50 of a selection of molecules
Give only the number. pEC50 is defined as minus log10 of concentration in molar units.

[[record]]
structure_string = "CCCCCCCCC=O"
numeric_result = 6.43


**Query** Given the entry `CCCCCCCCO` , what pEC50 was observed with OfurOR27 (Ostrinia furnacalis, UniProt A0A0E4B5I0)?
**Result** 4.85

**Query** How about `CCCCCCCC=O` ?
**Result** 5.93
